- STUDY_TARGET: Progesterone receptor (Homo sapiens) (UniProt P06401)
- TEST_DETAILS: Efficacy as a function of maximal inhibition against human progesterone receptor B (hPR-B).
Efficacy below 70% gives not satisfied; Efficacy at or above it gives satisfied.

Solved cases (4 shown):
CC12CCCN1c1cc3nc(O)cc(C(F)(F)F)c3cc1CC2 (stereo unspecified)
not satisfied
CN1c2cc3c(cc2CCC1(C)C)c(C(F)(F)F)cc(=O)n3C
satisfied
CC1(C)CCc2cc3c(C(F)(F)F)cc(O)nc3cc2N1
satisfied
CC(C)(O)C(=O)Nc1ccc([N+](=O)[O-])c(C(F)(F)F)c1
satisfied

Moving on to the next compound.
Is reported Efficacy greater than or equal to 70% here: Cc1c2c(cc3c(C(F)(F)F)cc(O)nc13)C(C)CC(C)(C)N2 (stereo unspecified)
satisfied

###

- STUDY_TARGET: UniProt:P06401
- Sequence (whole entry): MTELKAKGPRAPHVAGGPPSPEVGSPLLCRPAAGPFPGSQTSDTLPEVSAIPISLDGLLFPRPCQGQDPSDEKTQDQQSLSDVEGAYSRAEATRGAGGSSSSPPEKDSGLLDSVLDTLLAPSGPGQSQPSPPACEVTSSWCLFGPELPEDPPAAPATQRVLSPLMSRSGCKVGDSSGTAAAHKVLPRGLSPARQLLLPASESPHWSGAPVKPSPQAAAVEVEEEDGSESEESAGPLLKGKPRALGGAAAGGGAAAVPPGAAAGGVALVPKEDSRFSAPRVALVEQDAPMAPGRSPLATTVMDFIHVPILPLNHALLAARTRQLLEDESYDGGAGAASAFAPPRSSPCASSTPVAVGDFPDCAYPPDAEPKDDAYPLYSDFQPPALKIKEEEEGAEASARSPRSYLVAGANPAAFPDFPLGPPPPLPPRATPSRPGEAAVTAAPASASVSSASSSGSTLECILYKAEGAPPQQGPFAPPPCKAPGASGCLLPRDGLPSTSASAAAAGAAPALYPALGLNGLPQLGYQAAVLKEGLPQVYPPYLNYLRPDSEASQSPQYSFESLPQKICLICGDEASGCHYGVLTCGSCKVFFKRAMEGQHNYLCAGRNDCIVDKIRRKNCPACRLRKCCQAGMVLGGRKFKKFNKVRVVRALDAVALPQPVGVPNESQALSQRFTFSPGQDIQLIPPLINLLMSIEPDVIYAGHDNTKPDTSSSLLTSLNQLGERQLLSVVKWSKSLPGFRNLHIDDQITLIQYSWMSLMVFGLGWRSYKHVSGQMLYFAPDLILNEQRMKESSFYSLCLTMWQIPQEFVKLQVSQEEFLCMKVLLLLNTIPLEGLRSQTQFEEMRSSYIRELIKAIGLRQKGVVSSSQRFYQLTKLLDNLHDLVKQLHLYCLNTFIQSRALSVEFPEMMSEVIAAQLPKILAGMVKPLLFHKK
- TEST_DETAILS: Efficacy as a function of maximal inhibition against human progesterone receptor B (hPR-B).
READOUT_TYPE: Efficacy

# example entries with known answers
CCC1(C)CCc2cc3c(C(F)(F)F)cc(=O)n(C)c3cc2N1C (stereo not given)
92%
CCC1Cc2cc3c(C(F)(F)F)cc(O)nc3cc2NC1(C)C (stereo not given)
82%
CC1Cc2cc3c(C(F)(F)F)cc(O)nc3cc2NC1(C)C (stereo not given)
89%

Consider the record given below.
Returns the measured Efficacy for the input molecule. Input: CC1=CC(C)(C)Nc2cc3nc(O)cc(C(F)(F)F)c3cc21
62%
